Source listed as PubChem BioAssay AID2060497.

# Test system: 317291-083-R-J1-PDC complex spheroids, viability;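 note: spheroids exposed to compounds for one week before readout; percent viability relative to DMSO vehicle wells taken as 100%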
# assay_text: Anticancer human tumor 317291-083-R-J1-PDC patient-derived soft tissue sarcoma cell line growth inhibition [GQUAD]
# condition: second compound 10 µM; first compound 1 µM; stronger effect = lower value
// viability, T/C lookup, one value per entry
Report the figure in % without appending any unit label.

The examples below pair each entry with its known result.
compound	measurement_target	viability, T/C / %
CC(=O)O[C@H]1C(=O)[C@@]2(C)[C@H]([C@H](OC(=O)c3ccccc3)[C@]3(O)C[C@H](OC(=O)[C@H](O)[C@@H](NC(=O)c4ccccc4)c4ccccc4)C(C)=C1C3(C)C)[C@]1(OC(C)=O)CO[C@@H]1C[C@@H]2O + CN(C)c1ccc(Nc2c3ccc(NC(=O)CCN4CCCC4)cc3nc3cc(NC(=O)CCN4CCCC4)ccc23)cc1	317291-083-R-J1-PDC complex spheroids, viability	0.29
COc1cc(C2c3cc4c(cc3C(OC3OC5COC(C)OC5C(O)C3O)C3COC(=O)C23)OCO4)cc(OC)c1O (centres undefined) + Cc1cnc(CNC(=O)c2c(=O)c3ccc(N4CCCN(C)CC4)nc3n3c2sc2ccccc23)cn1	317291-083-R-J1-PDC complex spheroids, viability	10.8

Query string: Which viability, T/C value is on record for CC1COCCN1c1cc(C2(O)CC3CCC(C2)O3)c2cnn(-c3ccn[nH]3)c2n1 (centres undefined) + CN(C)c1ccc(Nc2c3ccc(NC(=O)CCN4CCCC4)cc3nc3cc(NC(=O)CCN4CCCC4)ccc23)cc1 ?
Result string: 2.16

Query string: Can you share its viability, T/C? I mean this compound: C#Cc1c(F)ccc2cc(O)cc(-c3ncc4c(N5CC6CCC(C5)N6)nc(OCC56CCCN5CC(F)C6)nc4c3F)c12 (centres undefined) + Cc1cnc(CNC(=O)c2c(=O)c3ccc(N4CCCN(C)CC4)nc3n3c2sc2ccccc23)cn1
Result string: 13.7

Query string: Entry COc1cc(C2c3cc4c(cc3C(OC3OC5COC(C)OC5C(O)C3O)C3COC(=O)C23)OCO4)cc(OC)c1O (centres undefined) + CN(C)c1ccc(Nc2c3ccc(NC(=O)CCN4CCCC4)cc3nc3cc(NC(=O)CCN4CCCC4)ccc23)cc1 : reported viability, T/C = ?
Result string: 7.68

Query string: Looking for the measured viability, T/C of COc1ncnc(C2CC2)c1-c1ncc2cnn(Cc3ccc(-c4nc(C(F)(F)F)cn4C(C)C)cc3)c2n1 + Cc1cnc(CNC(=O)c2c(=O)c3ccc(N4CCCN(C)CC4)nc3n3c2sc2ccccc23)cn1 , can you help?
Result string: 0.19

Query string: What value of viability, T/C has been recorded for this entry: CCCS(=O)(=O)Nc1ccc(F)c(C(=O)c2c[nH]c3ncc(-c4ccc(Cl)cc4)cc23)c1F + Cc1cnc(CNC(=O)c2c(=O)c3ccc(N4CCCN(C)CC4)nc3n3c2sc2ccccc23)cn1
Result string: 8.2
